Overview of reported tissue uptake at 3 h across a group of compounds:
assay: in vivo; design: species or system mice; details: male, NOD.Cg-Rag1tm1Mom Il2rgtm1Wjl/SzJ (NRG), mouse, iv, total radioactivity, Biodistribution: Kidneys
Where a SMILES comes first, the peptide text is derived from it. Bridges are numbered along the chain shown (N, C = ends). [ ]: non-standard residue; d: D form. The star is where a group is joined. X4 = O=C(O)CN1CCN(CC(=O)O)CCN(CC(=O)N[C@@H](CS(=O)(=O)O)C(=O)NCCCC[C@H](NC(=O)CNC(=O)CCCc2ccc(Cl)cc2)C(=O)*)CCN(CC(=O)O)CC1; X3 = O=C(O)CN1CCN(CC(=O)O)CCN(CC(=O)N[C@@H](CS(=O)(=O)O)C(=O)N[C@@H](CCCCNC(=O)CCCc2ccc(Br)cc2)C(=O)*)CCN(CC(=O)O)CC1; X5 = O=C(O)CN1CCN(CC(=O)O)CCN(CC(=O)N[C@@H](CS(=O)(=O)O)C(=O)N[C@@H](CCCCNC(=O)CCCc2ccc(Cl)cc2)C(=O)*)CCN(CC(=O)O)CC1; X1 = O=C(O)CN1CCN(CC(=O)O)CCN(CC(=O)N[C@@H](CS(=O)(=O)O)C(=O)N[C@@H](CCCCNC(=O)CCCc2ccc(I)cc2)C(=O)*)CCN(CC(=O)O)CC1; 2Nal = N[C@@H](Cc1ccc2ccccc2c1)C(=O)O; Lys(iPr) = CC(C)NCCCC[C@H](N)C(=O)O
Your answer should be a plain number; it is taken to be in %ID/g.

Some solved cases for reference:
Compound | tissue uptake at 3 h, %ID/g
CC(C)NCCCC[C@H](NC(=O)[C@H]1CCC(=O)N[C@@H](CCCCNC(=O)[C@H](CCCCNC(=O)CCCc2ccc(Br)cc2)NC(=O)[C@H](CS(=O)(=O)O)NC(=O)CN2CCN(CC(=O)O)CCN(CC(=O)O)CCN(CC(=O)O)CC2)C(=O)N[C@@H](Cc2ccc(O)cc2)C(=O)N[C@@H](CCCCNC(C)C)C(=O)N[C@H](CCCNC(=N)N)C(=O)N[C@@H](Cc2ccc3ccccc3c2)C(=O)N[C@H](C)C(=O)N1)C(N)=O [[^177Lu]Lu-BL34L20, metal not drawn] (K(X3)Y[Lys(iPr)][dR][2Nal][dA][dE][Lys(iPr)]-NH2; lactam N-7) | 3.98
CC(C)NCCCC[C@H](NC(=O)[C@H]1CCC(=O)N[C@@H](CCCCNC(=O)[C@H](CCCCNC(=O)[C@H](CS(=O)(=O)O)NC(=O)CN2CCN(CC(=O)O)CCN(CC(=O)O)CCN(CC(=O)O)CC2)NC(=O)CNC(=O)CCCc2ccc(Cl)cc2)C(=O)N[C@@H](Cc2ccc(O)cc2)C(=O)N[C@@H](CCCCNC(C)C)C(=O)N[C@H](CCCNC(=N)N)C(=O)N[C@@H](Cc2ccc3ccccc3c2)C(=O)N[C@H](C)C(=O)N1)C(N)=O [[68Ga]Ga-BL34T1, metal not drawn] (K(X4)Y[Lys(iPr)][dR][2Nal][dA][dE][Lys(iPr)]-NH2; lactam N-7) | 4.15
CC(C)NCCCC[C@H](NC(=O)[C@H]1CCC(=O)N[C@@H](CCCCNC(=O)[C@H](CCCCNC(=O)CCCc2ccc(Cl)cc2)NC(=O)[C@H](CS(=O)(=O)O)NC(=O)CN2CCN(CC(=O)O)CCN(CC(=O)O)CCN(CC(=O)O)CC2)C(=O)N[C@@H](Cc2ccc(O)cc2)C(=O)N[C@@H](CCCCNC(C)C)C(=O)N[C@H](CCCNC(=N)N)C(=O)N[C@@H](Cc2ccc3ccccc3c2)C(=O)N[C@H](C)C(=O)N1)C(N)=O [[^68Ga]Ga-BL34L16, metal not drawn] (K(X5)Y[Lys(iPr)][dR][2Nal][dA][dE][Lys(iPr)]-NH2; lactam N-7) | 2.2

Turning now to a further record.
query: Requested read-out: tissue uptake at 3 h. Entry: CC(C)NCCCC[C@H](NC(=O)[C@H]1CCC(=O)N[C@@H](CCCCNC(=O)[C@H](CCCCNC(=O)CCCc2ccc(I)cc2)NC(=O)[C@H](CS(=O)(=O)O)NC(=O)CN2CCN(CC(=O)O)CCN(CC(=O)O)CCN(CC(=O)O)CC2)C(=O)N[C@@H](Cc2ccc(O)cc2)C(=O)N[C@@H](CCCCNC(C)C)C(=O)N[C@H](CCCNC(=N)N)C(=O)N[C@@H](Cc2ccc3ccccc3c2)C(=O)N[C@H](C)C(=O)N1)C(N)=O [[^68Ga]Ga-BL34L11, metal not drawn] (K(X1)Y[Lys(iPr)][dR][2Nal][dA][dE][Lys(iPr)]-NH2; lactam N-7)
result: 3.9
